Tested on: DU145 cells
EXPERIMENTAL_DETAILS: cells
Assay type: cell-based
CONDITION: Homo sapiens, DU-145, 168 h, read-out: IC50 in DU145
METRIC_NAME: IC50 (µM)

[[record]]
compound = "CCC1CN2CCc3cc(OC)c(OC)cc3C2CC1CC1c2cc(OC)c(OC)cc2CCN1C(=O)/C(Cl)=C(\\Cl)C(=O)O (stereo not shown)"
unit_spec = "µM"
experimental_value = 5.22

[[record]]
compound = "CCC1CN2CCc3cc(OC)c(OC)cc3C2CC1CC1c2cc(OC)c(OC)cc2CCN1C(=O)/C=C/C(=O)O (stereo not shown)"
unit_spec = "µM"
experimental_value = 4.23

[[record]]
compound = "CCC1CN2CCc3cc(OC)c(OC)cc3C2CC1CC1c2cc(OC)c(OC)cc2CCN1C(=O)/C=C(/CC(=O)O)C(=O)O (stereo not shown)"
unit_spec = "µM"
experimental_value = 1.79

[[record]]
compound = "CCC1CN2CCc3cc(OC)c(OC)cc3C2CC1CC1c2cc(OC)c(OC)cc2CCN1C(=O)CCC(=O)O (stereo not shown)"
unit_spec = "µM"
experimental_value = 0.802

